Tested on: SR leukemia
Experiment: NCI tumour cell line growth inhibition, 48 h
Readout Name: GI50

[[record]]
chemical_smiles = "O=C1C=CC(=Nc2cc(Br)c(O)c(Br)c2)C=C1"
assay_result = "2.13 µM"

[[record]]
chemical_smiles = "O=C(COc1cc(O)c2c(=O)cc(-c3ccccc3)oc2c1)Nc1ccccc1C(F)(F)F"
assay_result = "4.44 µM"

[[record]]
chemical_smiles = "CNC(=O)c1ccccc1Nc1nc(Nc2cc(OC)c(OC)c(OC)c2)ncc1Br"
assay_result = "0.0254 µM"

[[record]]
chemical_smiles = "Oc1ccc(-c2nc3ccccc3s2)cc1CN(Cc1ccccn1)Cc1ccccn1"
assay_result = "2.14 µM"

[[record]]
chemical_smiles = "COc1cc(NCCCN=C(N)NC(N)=NC(C)C)c2ncccc2c1"
assay_result = "7.71 µM"

[[record]]
chemical_smiles = "O=Nc1ccc(NO)c2ccccc12"
assay_result = "16.3 µM"

